Provenance of the data: the supplement of paper PMC11246515

assay: total protein half-life in vivo (active degradation + dilution); higher = more stable protein; conditions: E. coli NCM3722 delta-clpP delta-lon delta-hslV; growth: N-lim chemostat; doubling time 6 h

| querySequence | total protein half-life in vivo / h |
| --- | --- |
| MHPRFQTAFAQLADNLQSALEPILADKYFPALLTGEQVSSLKSATGLDEDALAFALLPLAAACARTPLSNFNVGAIARGVSGTWYFGANMEFIGATMQQTVHAEQSAISHAWLSGEKALAAITVNYTPCGHCRQFMNELNSGLDLRIHLPGREAHALRDYLPDAFGPKDLEIKTLLMDEQDHGYALTGDALSQAAIAAANRSHMPYSKSPSGVALECKDGRIFSGSYAENAAFNPTLPPLQGALILLNLKGYDYPDIQRAVLAEKADAPLIQWDATSATLKALGCHSIDRVLLA [P0ABF6] | 5.28 |
| MANRMILNETAWFGRGAVGALTDEVKRRGYQKALIVTDKTLVQCGVVAKVTDKMDAAGLAWAIYDGVVPNPTITVVKEGLGVFQNSGADYLIAIGGGSPQDTCKAIGIISNNPEFADVRSLEGLSPTNKPSVPILAIPTTAGTAAEVTINYVITDEEKRRKFVCVDPHDIPQVAFIDADMMDGMPPALKAATGVDALTHAIEGYITRGAWALTDALHIKAIEIIAGALRGSVAGDKDAGEEMALGQYVAGMGFSNVGLGLVHGMAHPLGAFYNTPHGVANAILLPHVMRYNADFTGEKYRDIARVMGVKVEGMSLEEARNAAVEAVFALNRDVGIPPHLRDVGVRKEDIPALAQAALDDVCTGGNPREATLEDIVELYHTAW [P0A9S1] | 4.47 |
| MSKSLQKPTILNVETVARSRLFTVESVDLEFSNGVRRVYERMRPTNREAVMIVPIVDDHLILIREYAVGTESYELGFSKGLIDPGESVYEAANRELKEEVGFGANDLTFLKKLSMAPSYFSSKMNIVVAQDLYPESLEGDEPEPLPQVRWPLAHMMDLLEDPDFNEARNVSALFLVREWLKGQGRV | 4.86 |
| MSDKFGEGRDPYLYPGLDIMRNRLNIRQQQRLEQAAYEMTALRAATIELGPLVRGLPHLRTIHRQLYQDIFDWAGQLREVDIYQGDTPFCHFAYIEKEGNALMQDLEEEGYLVGLEKAKFVERLAHYYCEINVLHPFRVGSGLAQRIFFEQLAIHAGYQLSWQGIEKEAWNQANQSGAMGDLTALQMIFSKVVSEAGESE | 4.96 |
| MAGINLNKKLWRIPQQGMVRGVCAGIANYFDVPVKLVRILVVLSIFFGLALFTLVAYIILSFALDPMPDNMAFGEQLPSSSELLDEVDRELAASETRLREMERYVTSDTFTLRSRFRQL [P0AFN2] | 5.47 |
| MIFLMTKDSFLLQGFWQLKDNHEMIKINSLSEIKKVGNKPFKVIIDTYHNHILDEEAIKFLEKLDAERIIVLAPYHISKLKAKAPIYFVSRKESIKNLLEITYGKHLPHKNSQLCFSHNQFKIMQLILKNKNESNITSTLNISQQTLKIQKFNIMYKLKLRRMSDIVTLGITSYF | 4.62 |

---

Quick reference for total protein half-life in vivo among some sequences
test: total protein half-life in vivo (active degradation + dilution); higher = more stable protein; settings: wild type E. coli NCM3722; growth: N-lim chemostat; doubling time 6 h
measuredQuantity: total protein half-life in vivo

| querySequence | result |
| --- | --- |
| MTDLIQRPRRLRKSPALRAMFEETTLSLNDLVLPIFVEEEIDDYKAVEAMPGVMRIPEKHLAREIERIANAGIRSVMTFGISHHTDETGSDAWREDGLVARMSRICKQTVPEMIVMSDTCFCEYTSHGHCGVLCEHGVDNDATLENLGKQAVVAAAAGADFIAPSAAMDGQVQAIRQALDAAGFKDTAIMSYSTKFASSFYGPFREAAGSALKGDRKSYQMNPMNRREAIRESLLDEAQGADCLMVKPAGAYLDIVRELRERTELPIGAYQVSGEYAMIKFAALAGAIDEEKVVLESLGSIKRAGADLIFSYFALDLAEKKILR [P0ACB2] | 5.01 h |
| MQYNPLGKTDLRVSRLCLGCMTFGEPDRGNHAWTLPEESSRPIIKRALEGGINFFDTANSYSDGSSEEIVGRALRDFARREDVVVATKVFHRVGDLPEGLSRAQILRSIDDSLRRLGMDYVDILQIHRWDYNTPIEETLEALNDVVKAGKARYIGASSMHASQFAQALELQKQHGWAQFVSMQDHYNLIYREEEREMLPLCYQEGVAVIPWSPLARGRLTRPWGETTARLVSDEVGKNLYKESDENDAQIAERLTGVSEELGATRAQVALAWLLSKPGIAAPIIGTSREEQLDELLNAVDITLKPEQIAELETPYKPHPVVGFK | 4.21 h |
